Source listed as PubChem BioAssay AID2060882.

Please go through the items and note down their viability, T/C.
Test system: 898857-211-R-J1-PDC complex spheroids, growth % test/control
Assay Name: Anticancer human tumor 898857-211-R-J1-PDC patient-derived melanoma cell line growth inhibition [RAS]
Condition Parameters: second compound 0.000949 µM; first compound 1 µM; stronger effect = lower value
One number for each entry, in %.

CC(C)NCC(C(=O)N1CCN(c2ncnc3c2C(C)CC3O)CC1)c1ccc(Cl)cc1 (configuration not stated) + CCn1c(-c2cccnc2C(C)OC)c2c3cc(ccc31)N1CCOC(CC(NC(=O)C(C(C)C)N(C)C(=O)C3(F)CCN(C(=O)C#CC(C)(C)N(C)C)CC3)C(=O)N3CCCC(N3)C(=O)OCC(C)(C)C2)C1    91.6

Input line: Please report the measured viability, T/C for C=CC(=O)N1CCN(c2nc(OCC3CCCN3C)nc3c(F)c(-c4nc(N)cc(C)c4C(F)(F)F)c(Cl)cc23)C(C)C1 (configuration not stated) + CCn1c(-c2cc(N3CCN(C)CC3)cnc2C(C)OC)c2c3cc(ccc31)-c1csc(n1)CC(NC(=O)C1CC1C)C(=O)N1CCCC(N1)C(=O)OCC(C)(C)C2
Output line: 126

* * *

Tested on: 898857-211-R-J1-PDC complex spheroids, growth % test/control
Assay Name: Anticancer human tumor 898857-211-R-J1-PDC cell line growth inhibition [RAS];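 note: spheroids exposed to compound for seven days before readout; 100% = DMSO vehicle control wells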
Condition Parameters: second compound 0.0316 µM; first compound 0.000949 µM; stronger effect = lower value
Please go through the items and note down their viability, T/C.
Numbers only, in %.

State the recorded viability, T/C for every item in the following list.
1. CC1(C)CCC(Nc2ncc(C(F)(F)F)c(-c3c[nH]c4c(P(C)(C)=O)c(C#N)ccc34)n2)CN1 (centres undefined) + C=CC(=O)N1CCN(c2nc(OCC3CCCN3C)nc3c(F)c(-c4nc(N)cc(C)c4C(F)(F)F)c(Cl)cc23)C(C)C1
2. CC1(C)CCC(Nc2ncc(C(F)(F)F)c(-c3c[nH]c4c(P(C)(C)=O)c(C#N)ccc34)n2)CN1 (centres undefined) + C#Cc1c(F)ccc2cc(O)cc(-c3ncc4c(N5CC6CCC(C5)N6)nc(OCC56CCCN5CC(F)C6)nc4c3F)c12

Output line:
1: 91.3; 2: 99.2

State the recorded viability, T/C for every item in the following list.
1. CCc1c2c(nc3ccc(O)cc13)-c1cc3c(c(=O)n1C2)COC(=O)[C@]3(O)CC + C=CC(=O)N1CCN(c2nc(OCC3CCCN3C)nc3c(F)c(-c4nc(N)cc(C)c4C(F)(F)F)c(Cl)cc23)C(C)C1
2. CCc1c2c(nc3ccc(O)cc13)-c1cc3c(c(=O)n1C2)COC(=O)[C@]3(O)CC + C#Cc1c(F)ccc2cc(O)cc(-c3ncc4c(N5CC6CCC(C5)N6)nc(OCC56CCCN5CC(F)C6)nc4c3F)c12

Output line:
1. 87.3
2. 109

* * *

Test system: 898857-211-R-J1-PDC complex spheroids, growth % test/control
Assay Name: Anticancer human tumor 898857-211-R-J1-PDC cell line growth inhibition [RAS]; active = viability on the fitted dose curve at most 10% of control; inactive = the rest;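 note: spheroids exposed to compound for seven days before readout; 100% = DMSO vehicle control wells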
Condition Parameters: second compound 0.1 µM; first compound 0.03 µM
Text: RAS pathway inhibitors in Combinations in Complex Spheroids A high-throughput screen of multi-cell type tumor spheroids was designed to identify active combinations of RAS pathway inhibitors and targeted small molecules. Complex spheroids include a stromal component modeled by human endothelial cells (HUVEC) and fibroblasts modeled by human mesenchymal stem cells (MSCs). […] Compounds. […] If the clinical Cmax for an agent had not been determined, the highest concentration tested was 10 microM. […]
Entry note: the call must match one of active, inactive

Input line: Which outcome was entered for the compound CCc1c2c(nc3ccc(O)cc13)-c1cc3c(c(=O)n1C2)COC(=O)[C@]3(O)CC + C#Cc1c(F)ccc2cc(O)cc(-c3ncc4c(N5CC6CCC(C5)N6)nc(OCC56CCCN5CC(F)C6)nc4c3F)c12 in this test?
Output line: inactive
